Target chain: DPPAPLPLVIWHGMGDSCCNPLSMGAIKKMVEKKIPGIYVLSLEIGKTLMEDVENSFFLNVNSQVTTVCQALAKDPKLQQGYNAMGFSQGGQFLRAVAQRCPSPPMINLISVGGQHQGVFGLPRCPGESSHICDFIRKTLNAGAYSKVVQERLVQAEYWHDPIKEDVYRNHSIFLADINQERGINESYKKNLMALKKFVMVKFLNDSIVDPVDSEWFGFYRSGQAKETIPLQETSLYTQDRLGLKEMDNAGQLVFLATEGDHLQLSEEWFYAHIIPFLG
Recorded endpoint: log10 IC50 (log10 of the value in µM)
A difference of one corresponds to tenfold IC50; all values are log10 with IC50 in µM.

Example entries begin here.
CCN(CC)CCCC(C)Nc1ccnc2cc(Cl)ccc12 (stereo not shown)	1.67
CCCCCCCCCCC[C@@H](C[C@@H]1OC(=O)[C@H]1CCCCCC)OC(=O)[C@H](CC(C)C)NC=O	-0.75
CCCCCCCCCC[C@@H]1C(=O)O[C@H]1CCc1ccc(OC)c(OC)c1	-1.93

Answer with the recorded log10 IC50 for the compound listed here: "CCN(CC)CCNc1ccc(CO)c2sc3ccccc3c(=O)c12"
2.05

Answer with the recorded log10 IC50 for the compound listed here: "COc1cc(C=O)ccc1O"
2.81

Answer with the recorded log10 IC50 for the compound listed here: "Cc1ccc(C(=O)c2cc(O)c(O)c([N+](=O)[O-])c2)cc1"
2.25

----------
# Lookup of reported IC50 keyed by entry
# Target or test system: PPT1 (Homo sapiens)
# Sequence (P50897 28-306): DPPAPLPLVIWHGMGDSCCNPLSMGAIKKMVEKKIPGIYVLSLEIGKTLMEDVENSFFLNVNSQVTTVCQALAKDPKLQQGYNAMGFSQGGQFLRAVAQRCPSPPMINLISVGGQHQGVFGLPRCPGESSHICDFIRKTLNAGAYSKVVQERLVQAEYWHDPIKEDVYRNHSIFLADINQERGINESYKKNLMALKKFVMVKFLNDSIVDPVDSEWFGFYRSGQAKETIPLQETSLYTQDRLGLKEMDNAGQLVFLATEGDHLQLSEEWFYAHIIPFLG

Answer with the recorded IC50 for the molecule listed here: C[C@@H]1O[C@@H](OC[C@H]2O[C@@H](Oc3c(-c4ccc(O)c(O)c4)oc4cc(O)cc(O)c4c3=O)[C@H](O)[C@@H](O)[C@@H]2O)[C@H](O)[C@H](O)[C@H]1O [Rutin trihydrate]
~156 µM

Answer with the recorded IC50 for the molecule listed here: CN(C)[C@@H]1C(O)=C(C(N)=O)C(=O)[C@@]2(O)C(O)=C3C(=O)c4c(O)cccc4[C@@](C)(O)[C@H]3C[C@@H]12 [Tetracycline]
> 100 µM

----------
# Target or test system: PPT1 (Homo sapiens)
# Lookup of reported IC50 keyed by entry

CCN(CC)CCCC(C)Nc1c2ccc(Cl)cc2nc2ccc(OC)cc12 (stereo not shown)	~169 µM
CCOC(=O)[N-]c1cn(N2CCOCC2)n[o+]1	> 100 µM
Cc1ncc([N+](=O)[O-])n1CCO	> 100 µM

Proceeding to the next compound to report its IC50.
Answer with the recorded IC50 for the compound listed here: Cc1ncc([N+](=O)[O-])n1CC(O)CCl (stereo not shown)
> 100 µM

----------
Target sequence: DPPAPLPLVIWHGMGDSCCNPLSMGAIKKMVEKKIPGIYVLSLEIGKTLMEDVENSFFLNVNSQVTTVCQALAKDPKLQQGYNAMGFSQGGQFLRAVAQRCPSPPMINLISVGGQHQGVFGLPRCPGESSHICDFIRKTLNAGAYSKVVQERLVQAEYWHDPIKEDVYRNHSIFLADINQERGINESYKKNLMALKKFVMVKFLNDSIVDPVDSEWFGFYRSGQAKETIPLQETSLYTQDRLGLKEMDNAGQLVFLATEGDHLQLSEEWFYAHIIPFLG
Recorded endpoint: IC50 (µM)
Kindly answer with a numeric value in µM, unit omitted.

Answer with the recorded IC50 for the molecule listed here: "CO[C@H]1/C=C/O[C@@]2(C)Oc3c(C)c(O)c4c(O)c(c(/C=N/N5CCN(C6CCCC6)CC5)c(O)c4c3C2=O)NC(=O)/C(C)=C\C=C\[C@H](C)[C@H](O)[C@@H](C)[C@@H](O)[C@@H](C)[C@H](OC(C)=O)[C@@H]1C"
63.3

----------
# Target or test system: PPT1 (Homo sapiens)
# Sequence (P50897 28-306): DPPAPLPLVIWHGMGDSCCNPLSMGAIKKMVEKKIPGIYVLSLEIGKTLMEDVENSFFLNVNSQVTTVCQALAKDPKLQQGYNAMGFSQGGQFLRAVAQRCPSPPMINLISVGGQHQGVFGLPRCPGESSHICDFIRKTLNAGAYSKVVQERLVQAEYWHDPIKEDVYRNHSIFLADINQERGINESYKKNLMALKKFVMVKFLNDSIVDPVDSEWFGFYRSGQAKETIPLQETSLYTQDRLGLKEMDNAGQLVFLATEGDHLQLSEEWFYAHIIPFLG
# Lookup of reported pIC50 keyed by entry
Note on units: pIC50 is unitless, being -log10 of a concentration expressed in mol/L.

CCN(CC)Cc1cc(Nc2ccnc3cc(Cl)ccc23)ccc1O [Amodiaquine]	3.46

Answer with the recorded pIC50 for the molecule listed here: CCN(CCO)CCCC(C)Nc1ccnc2cc(Cl)ccc12 (stereo not shown) [Hydroxychloroquine]
3.96

Answer with the recorded pIC50 for the molecule listed here: Cn1nnc2c(C(N)=O)ncn2c1=O [Temozolomide]
3.63
